experiment: qHTS assay to identify small molecule agonists of the hypoxia (HIF-1) signaling pathway - cell viability counter screen (AID 1224844); details: HRE-bla ME-180 viability, CellTiter-Glo luminescence, 17 h; series mostly up to 76.8 µM; note: % is set by controls: 0 for no effect and ±100 for the full control effect; nearly all actives have a fitted effect of over 50% in size
Records with an inconclusive call do not appear. Activity calls are given as the source filed them. Calls come from the whole dose curve.
endpoint: activity change, negative = cytotoxicity

molecule: CC(C)[C@H]1CC[C@H](C)C[C@@H]1O
test-result: inactive
//
molecule: CCC(C)C(=O)OCCc1ccccc1 (configuration not stated)
test-result: inactive
//
molecule: O=C(O)CSCC(=O)NC1CCSC1=O (configuration not stated)
test-result: inactive
//
molecule: CC(C)C[C@@H]1[C@H](c2ccccc2)OC(=O)N1CCCN1CCCCCC1
test-result: inactive
//
molecule: CC1OCCC1=O (configuration not stated)
test-result: inactive
//
molecule: Cn1c(=O)c2[nH]c(Br)nc2n(C)c1=O
test-result: inactive

Next up:
[in] Recall and state the measured activity change, negative = cytotoxicity for COc1cc(OC)nc(O[C@H](C(=O)O)C(OC)(c2ccccc2)c2ccccc2)n1 .
[out] inactive

* * *

Assay: qHTS assay to identify small molecule agonists of the TGF-beta/Smad signaling pathway - cell viability counter screen (AID 1346829); note: top concentration of the series differs between compounds; % is set by controls: 0 for no effect and ±100 for the full control effect; nearly all actives have a fitted effect of over 45% in size
Conditions: SBE-bla HEK293T viability, CellTiter-Glo luminescence, 5 h; series mostly up to 76.8 µM
Description: National Center for Advancing Translational Sciences [NCATS] NIH Chemical Genomics Center [NCGC] U.S. Environmental Protection Agency [EPA] National Institutes of Environmental Health Sciences [NIEHS] National Toxicology Program [NTP] U.S. Food and Drug Administration [FDA] Transforming growth factor beta (TGF-beta) superfamily consists of a large number of structurally related dimeric proteins that act as hormones or local mediators in regulating a wide range of biological functions. […]
Inconclusive results are not listed. Active and inactive are the calls of the source. The call rests on the fitted dose curve; in most records, active means well fitted cell-killing curve with a large enough effect in the repeat runs; inconclusive means weak or mixed curves, or effect the other way; inactive means flat fitted curve, though single readings scatter.
endpoint: activity change, negative = cytotoxicity

Below, each entry is followed by its recorded activity change, negative = cytotoxicity result.
compound: CCCCCC/C=C/C(=O)OC
activity change, negative = cytotoxicity: inactive

compound: CCCCOCC(C)O (stereo unspecified)
activity change, negative = cytotoxicity: inactive

compound: CC1=C(C(=O)O)N2C(=O)[C@@H](NC(=O)[C@H](N)c3ccccc3)[C@H]2SC1
activity change, negative = cytotoxicity: inactive

compound: O=C(Cl)c1ccccc1[N+](=O)[O-]
activity change, negative = cytotoxicity: inactive

compound: CCOCCOCC
activity change, negative = cytotoxicity: inactive

compound: CC(C)CO
activity change, negative = cytotoxicity: inactive

compound: CN1C[C@@H]2C[C@H]1CN2c1cc2c(cc1F)c(=O)c(C(=O)O)cn2C1CC1
activity change, negative = cytotoxicity: 2.12% [at 15.8 µM] (inactive)

compound: CCCCOCCOC(=O)COc1ccc(Cl)cc1Cl
activity change, negative = cytotoxicity: inactive

[in] In one line, give reported activity change, negative = cytotoxicity of the entry CC(C)OC(=O)OCOP(=O)(CO[C@H](C)Cn1cnc2c(N)ncnc21)OCOC(=O)OC(C)C .
[out] inactive

[in] Given CCCCCCCCCCCCCCCCCCOCCO , respond with its activity change, negative = cytotoxicity.
[out] -6.94% [at 15.8 µM] (inactive)

[in] Given COC(=O)c1ccccc1C(=O)O , respond with its activity change, negative = cytotoxicity.
[out] inactive

[in] For the compound CN1CCOC(c2ccccc2)c2ccccc2C1 (stereo unspecified) , report activity change, negative = cytotoxicity.
[out] inactive

[in] Give reported activity change, negative = cytotoxicity value for CC12CCC(C1)C(C)(C)C2O (stereo unspecified)
[out] inactive

[in] Give activity change, negative = cytotoxicity for Cc1c(NC(=O)c2cccnc2)c(=O)n(-c2ccccc2)n1C
[out] inactive

[in] Give a short answer stating reported activity change, negative = cytotoxicity for O=C(CCCCC(=O)Nc1c(I)cc(I)c(C(=O)O)c1I)Nc1c(I)cc(I)c(C(=O)O)c1I .
[out] inactive

[in] Provide activity change, negative = cytotoxicity value for the following compound: CO[Si](CCCn1c(=O)n(CCC[Si](OC)(OC)OC)c(=O)n(CCC[Si](OC)(OC)OC)c1=O)(OC)OC
[out] inactive

* * *

test: qHTS assay to test for compound auto fluorescence at 590 nm (red) in HEK293 cell free culture (AID 720683); details: cell-free medium autofluorescence, Ex540/Em590 red; series mostly up to 91.3 µM; note: % is set by controls: 0 for no effect and ±100 for the full control effect
Activity calls are given as the source filed them. Calls follow the shape of the dose curve; as a rule, active = well fitted curve in the direction sought with a large enough effect in the repeat runs; inconclusive = weak or mixed curves; inactive = flat fitted curve, though single readings scatter.
endpoint: fluorescence, % of fluorescent control

Example molecules with recorded fluorescence, % of fluorescent control:
molecule: CCCc1ccc(O)cc1
fluorescence, % of fluorescent control: inactive

molecule: CC(O)COC(C)(C)C (stereo not given)
fluorescence, % of fluorescent control: inactive

molecule: CC1=C(C(=O)O)N2C(=O)[C@@H](NC(=O)[C@H](N)C3=CCC=CC3)[C@H]2SC1
fluorescence, % of fluorescent control: inactive

molecule: CCCCCC(C)O (stereo not given)
fluorescence, % of fluorescent control: inactive

molecule: CCOc1cccc(N)c1
fluorescence, % of fluorescent control: inactive

[in] // Input: O=NN(CCCl)C(=O)NC1CCCCC1 . Output its fluorescence, % of fluorescent control only.
[out] inactive

[in] Please indicate fluorescence, % of fluorescent control recorded for C/C=C(\C)C(C)=O
[out] inactive

[in] Identify fluorescence, % of fluorescent control associated with the molecule CCCCSCCCC
[out] inactive

[in] Output fluorescence, % of fluorescent control of COS(=O)(=O)O
[out] inactive

[in] Give the measured fluorescence, % of fluorescent control for CCC[C@@H]1C[C@@H](C(=O)N[C@@H]([C@H]2O[C@H](SC)[C@H](O)[C@@H](O)[C@H]2O)[C@@H](C)O)N(C)C1
[out] inactive

[in] Query fluorescence, % of fluorescent control for CCC/C=C(\C=O)CC
[out] inactive

[in] Return fluorescence, % of fluorescent control (reported value) for this molecule: CO[Si](CCCn1c(=O)n(CCC[Si](OC)(OC)OC)c(=O)n(CCC[Si](OC)(OC)OC)c1=O)(OC)OC
[out] inactive

* * *

assay: qHTS assay to identify small molecule antagonists of the retinoid-related orphan receptor gamma (ROR-gamma) signaling pathway - cell viability counter screen (AID 1159520); conditions: Tet-on RORgamma CHO cells viability, ATP luminescence, 16 h; series mostly up to 92.4 µM; note: % is set by controls: 0 for no effect and ±100 for the full control effect; nearly all actives have a fitted effect of over 50% in size
Results filed as inconclusive are left out. Calls of active or inactive are those of the source. Calls follow the shape of the dose curve; as a rule, active = well fitted cell-killing curve with a large enough effect in the repeat runs; inconclusive = weak or mixed curves, or effect the other way; inactive = no such curve, though single readings can be large or run the other way.
endpoint: activity, negative = cytotoxicity

compound: O=C(O)CNC(=O)CNC(=O)CNC(=O)CSC(=O)c1ccccc1
activity, negative = cytotoxicity: inactive
--
compound: COC(=O)c1ccccc1C(=O)O
activity, negative = cytotoxicity: inactive
--
compound: CCCCCCCCCCCCCBr
activity, negative = cytotoxicity: inactive
--
compound: N#Cc1cscn1
activity, negative = cytotoxicity: inactive
--
compound: Cc1c(C(=O)c2c[nH]n(C)c2=O)ccc(S(C)(=O)=O)c1C1=NOCC1
activity, negative = cytotoxicity: inactive
--
compound: CCCCSCCCC
activity, negative = cytotoxicity: inactive
--
compound: CC(=O)C1C(=O)C=C(C)OC1=O (centres undefined)
activity, negative = cytotoxicity: inactive
--
compound: c1ccc(-c2nn[nH]n2)cc1
activity, negative = cytotoxicity: inactive

[in] Entry Cc1cccc(Cl)c1 needs its activity, negative = cytotoxicity filled in; supply it.
[out] inactive

[in] Look up and report measured activity, negative = cytotoxicity for this entry: CCOCCOCC
[out] inactive

[in] Name the recorded activity, negative = cytotoxicity of the item CCCCCc1cccc(=O)o1 in your answer.
[out] inactive

* * *

test: qHTS RealTime-Glo MT Cell Viability Assay in HEK293 cells - 40 hour (AID 1224874); settings: RealTime-Glo luminescence; hits give low values; note: % is set by controls: 0 for no effect and ±100 for the full control effect; nearly all actives have a fitted effect of over 50% in size
Inconclusive results are not listed. Calls of active or inactive are those of the source. The call rests on the fitted dose curve; in most records, active means well fitted cell-killing curve with a large enough effect in the repeat runs; inconclusive means weak or mixed curves, or effect the other way; inactive means flat fitted curve, though single readings scatter.
endpoint: max response

molecule: CCOC(=O)CC1(C)OCC(C)O1 (centres undefined)
max response: 1.97% (inactive)
--
molecule: Nc1nnnn1-c1ccccc1
max response: 0.0553% (inactive)
--
molecule: CC(=O)O[C@@H]1CC2CCC1(C)C2(C)C (some centres undefined)
max response: 5.83% (inactive)
--
molecule: CCO[Si](CC)(OCC)OCC
max response: -9.96% (inactive)
--
molecule: CC(C)=CCC[C@@](C)(O)[C@H]1CC=C(C)CC1
max response: -0.631% (inactive)

Proceed to the following item.
[in] Provide max response value for the following molecule: COc1cc(OC)nc(O[C@H](C(=O)O)C(OC)(c2ccccc2)c2ccccc2)n1
[out] 4.04% (inactive)

* * *

assay: qHTS assay for small molecule agonists of the antioxidant response element (ARE) signaling pathway - cell viability counter screen (AID 743203); settings: ARE-bla HepG2 viability, CellTiter-Glo luminescence, 16 h; series mostly up to 73.3 µM; note: % is set by controls: 0 for no effect and ±100 for the full control effect; nearly all actives have a fitted effect of over 55% in size
Results filed as inconclusive are left out. The source made the active and inactive calls. The call rests on the fitted dose curve.
endpoint: viability change, negative = cytotoxic

compound: C=CC(=O)CCCCC
endpoint: viability change, negative = cytotoxic
test-result: inactive
//
compound: CCn1cc(C(=O)O)c(=O)c2cnc(N3CCCC3)nc21
endpoint: viability change, negative = cytotoxic
test-result: 0.125% [at 8.36 µM] (inactive)
//
compound: Cn1c(=O)c2[nH]c(Br)nc2n(C)c1=O
endpoint: viability change, negative = cytotoxic
test-result: inactive
//
compound: CCC[C@@H]1C[C@@H](C(=O)N[C@@H]([C@H]2O[C@H](SC)[C@H](O)[C@@H](O)[C@H]2O)[C@@H](C)O)N(C)C1
endpoint: viability change, negative = cytotoxic
test-result: inactive
//
compound: Fc1ccccc1
endpoint: viability change, negative = cytotoxic
test-result: inactive

The record that follows has no viability change, negative = cytotoxic shown yet.
[in] Please give measured viability change, negative = cytotoxic of the following entry: O=[N+]([O-])c1c(Cl)cc(Cl)cc1Cl
[out] inactive
